B1: glmS ribozyme (parent)
chain: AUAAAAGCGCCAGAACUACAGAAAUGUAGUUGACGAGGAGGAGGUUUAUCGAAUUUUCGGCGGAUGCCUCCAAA

# Variants of: B1
# test: self-cleavage kobs at 640 uM GlcN6P; higher = faster cleavage; RNA array
# experimental conditions: with glucosamine-6-phosphate
This sample holds only a part of the variants without activity.
If the reported self-cleavage kobs at 640 uM GlcN6P equals or exceeds 0.0005 s⁻¹, assign rule met. If not, assign rule not met.

{"columns": ["variant name", "label class"],
 "data": [
  ["U47A U65G", "rule met"],
  ["G13C U46G A53U U54A", "rule not met"],
  ["U30A A33C G40A C71U", "rule not met"],
  ["C16U C71U", "rule met"],
  ["G38C U55A", "rule not met"],
  ["G32U G62A", "rule not met"],
  ["A12C U30A", "rule met"],
  ["A39U A42C U54C U65C", "rule not met"],
  ["G13A U47A", "rule not met"],
  ["G29U C67A", "rule not met"],
  ["G7A A52U G63C", "rule not met"],
  ["A39C U55A", "rule met"],
  ["A42G G43C", "rule not met"],
  ["U45C U65G", "rule not met"],
  ["A42G U46G", "rule met"],
  ["G13U U31A", "rule not met"],
  ["U46C U65A", "rule not met"],
  ["A39U U47G", "rule met"],
  ["G9A C61G", "rule not met"],
  ["U47G U49A A52U", "rule not met"],
  ["G35A U65C U69C", "rule not met"],
  ["U31A G32A G59U G62A", "rule not met"],
  ["C8A C61U G66A", "rule not met"],
  ["G29C A39U", "rule not met"],
  ["U31C G60U G63C", "rule not met"],
  ["G37C C50A C58A U69A", "rule not met"],
  ["C10U U49G", "rule not met"],
  ["G37C G38U", "rule not met"],
  ["A12C C50A U56A", "rule not met"],
  ["U46A A64G", "rule met"],
  ["A42C G51C", "rule not met"]
]}
